testSystem: T1, MUC1 on MUC1+ human cancer cell lines and tumor tissue (abnormal, e.g. hypoglycosylated, tumor MUC1) (human, UniProt P15941 24-1255)
T1 construct: the MUC1 of each cell line or tissue (number of repeats, glycoform) is not specified; The cell line or tissue is named under assay; also called MUC1 on HPAF, MCF-7, BT-20, SKBR-3, PANC-1, MS+MUC1 cells; MUC1 on colon and pancreatic tumor samples
procedureSummary: flow cytometry, MCF-7 cells
Measured percentage of APC+ stained cells accompanies every entry in the list below.
Give just the number in %; leave the unit off.

binder	recordedMeasurement
M7 (antibody, human IgG1, kappa, V domains shown, Human IgG) VH: EVQLVESGGGLVQPGGSLRLSCAASGFTVSSNYMSWVRQAPGKGLEWVSVIYSGGSTYYADSVKGRFTISRDNSKNTLYLQMNSLRAEDTAVYYCARGSTNTYYYDSSGHPWGQGTMVTVSS VL: DIVMTQSPLSLPATPGEPASISCRSSQSLLHSNGYTYLDWYLQKPGQSPQVLIYLASNRASGVPDRFSGSGSGTNFTLKISRVEAEDVGLFYCMQALQTPQTFGQGTKLEIKR	83.5
M20 (antibody, human IgG1, kappa, V domains shown, Human IgG) VH: EVQLVESGGGLVQPGGSLRLSCAASGFTFSSYWMHWVRQAPGKGLVWVSHINSDGSSTSYADSVKGRFTISRDNAKNTLYLQMNSLRAEDTAVYYCARELADWGQGTLVTVSS VL: DVVMTQSPLSLPVTLGQPASISCRSSQSLVYSDGNTYLNWFQQRPGQSPRRLIYQVSNRDSGVPDRFSGSGSGTDFTLKIGRVEAEDVGVYFCMQGTHWPWTFGQGTKVEIKR	29.2

Query: percentage of APC+ stained cells lookup needed for M3 (antibody, human IgG1, lambda, V domains shown, Human IgG) VH: QLQLQESGPGLVKPSETLSLTCTVSGGSISSSSYYWGWIRQPPGKGLEWIGSIYYSGSTHYNPSLKSRVTISVDTSKNQFSLKLRSVTAADTAVYYCARGVVEVRGNHYYYYYMDVWGKGTTVTVSS VL: QSVLTQPPSVSGAPGQRVTISCTGSSSNIGAGYDVHWYQQLPGTAPKLLIYGNSYRPSGVPDRFSGSKSGTSASLAITGLQAEDEADYYCQSYDSSLSGSGVFGGGTKLTVLG , thanks.
Response: 79.6

Query: percentage of APC+ stained cells lookup needed for M22 (antibody, human IgG1, kappa, V domains shown, Human IgG) VH: EVQLVESGGGLVQPGGSLRLSCAASGFTVSSNYMSWVRQAPGKGLEWVSVIYSGGTTYYADSVKGRFTISRHNSKNTLYLQMNSLRAEDTAVYYCARDHDPDYGGYYMDVWGKGTTVTVSS VL: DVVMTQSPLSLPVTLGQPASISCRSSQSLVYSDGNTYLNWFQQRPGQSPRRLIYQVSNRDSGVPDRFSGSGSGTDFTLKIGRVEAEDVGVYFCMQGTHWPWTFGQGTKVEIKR , thanks.
Response: 5.68
